# system under test: Glutamate receptor 2 (Homo sapiens, UniProt P42262)
# Sequence (P42262 whole entry): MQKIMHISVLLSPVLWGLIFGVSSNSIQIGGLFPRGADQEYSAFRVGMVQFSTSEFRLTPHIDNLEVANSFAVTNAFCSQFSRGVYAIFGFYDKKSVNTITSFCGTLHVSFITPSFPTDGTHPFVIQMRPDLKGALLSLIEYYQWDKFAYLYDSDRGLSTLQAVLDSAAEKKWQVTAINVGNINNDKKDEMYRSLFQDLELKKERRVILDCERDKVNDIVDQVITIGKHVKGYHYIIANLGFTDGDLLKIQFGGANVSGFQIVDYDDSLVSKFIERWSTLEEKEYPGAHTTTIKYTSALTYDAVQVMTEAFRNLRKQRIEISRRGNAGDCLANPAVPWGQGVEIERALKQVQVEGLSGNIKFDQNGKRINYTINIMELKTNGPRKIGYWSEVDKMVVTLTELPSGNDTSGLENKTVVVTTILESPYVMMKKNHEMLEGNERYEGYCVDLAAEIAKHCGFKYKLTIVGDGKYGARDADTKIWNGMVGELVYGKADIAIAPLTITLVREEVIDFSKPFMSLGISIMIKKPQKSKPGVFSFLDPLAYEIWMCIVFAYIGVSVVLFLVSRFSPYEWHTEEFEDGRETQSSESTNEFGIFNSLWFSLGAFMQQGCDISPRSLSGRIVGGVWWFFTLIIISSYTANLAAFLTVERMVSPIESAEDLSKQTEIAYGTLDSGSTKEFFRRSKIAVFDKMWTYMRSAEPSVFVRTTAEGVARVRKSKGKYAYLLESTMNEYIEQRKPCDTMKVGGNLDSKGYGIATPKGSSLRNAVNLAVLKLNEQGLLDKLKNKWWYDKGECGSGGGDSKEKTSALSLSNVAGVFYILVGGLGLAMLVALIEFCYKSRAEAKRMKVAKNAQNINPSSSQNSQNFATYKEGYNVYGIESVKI
Recorded Ki by entry

CCC(CC)COC(=O)[C@@H]1C[C@H]2C[C@@H](Nc3ccccc3-c3nnn[nH]3)CC[C@H]2CN1    > 10 µM
CCC(C)OC(=O)[C@@H]1C[C@H]2C[C@@H](Oc3ccccc3-c3nnn[nH]3)CC[C@H]2CN1 (stereo partly drawn)    > 10 µM

The record that follows has no Ki shown yet.
Query: Give the measured Ki for O=C(O)C1CC(F)(F)CN1C[C@H]1CC[C@H]2CN[C@H](C(=O)O)C[C@H]2C1 (stereo partly drawn)
Response: > 10 µM

====

# system under test: Glutamate receptor ionotropic, kainate 5 (Homo sapiens)
# Sequence (Q16478 whole entry): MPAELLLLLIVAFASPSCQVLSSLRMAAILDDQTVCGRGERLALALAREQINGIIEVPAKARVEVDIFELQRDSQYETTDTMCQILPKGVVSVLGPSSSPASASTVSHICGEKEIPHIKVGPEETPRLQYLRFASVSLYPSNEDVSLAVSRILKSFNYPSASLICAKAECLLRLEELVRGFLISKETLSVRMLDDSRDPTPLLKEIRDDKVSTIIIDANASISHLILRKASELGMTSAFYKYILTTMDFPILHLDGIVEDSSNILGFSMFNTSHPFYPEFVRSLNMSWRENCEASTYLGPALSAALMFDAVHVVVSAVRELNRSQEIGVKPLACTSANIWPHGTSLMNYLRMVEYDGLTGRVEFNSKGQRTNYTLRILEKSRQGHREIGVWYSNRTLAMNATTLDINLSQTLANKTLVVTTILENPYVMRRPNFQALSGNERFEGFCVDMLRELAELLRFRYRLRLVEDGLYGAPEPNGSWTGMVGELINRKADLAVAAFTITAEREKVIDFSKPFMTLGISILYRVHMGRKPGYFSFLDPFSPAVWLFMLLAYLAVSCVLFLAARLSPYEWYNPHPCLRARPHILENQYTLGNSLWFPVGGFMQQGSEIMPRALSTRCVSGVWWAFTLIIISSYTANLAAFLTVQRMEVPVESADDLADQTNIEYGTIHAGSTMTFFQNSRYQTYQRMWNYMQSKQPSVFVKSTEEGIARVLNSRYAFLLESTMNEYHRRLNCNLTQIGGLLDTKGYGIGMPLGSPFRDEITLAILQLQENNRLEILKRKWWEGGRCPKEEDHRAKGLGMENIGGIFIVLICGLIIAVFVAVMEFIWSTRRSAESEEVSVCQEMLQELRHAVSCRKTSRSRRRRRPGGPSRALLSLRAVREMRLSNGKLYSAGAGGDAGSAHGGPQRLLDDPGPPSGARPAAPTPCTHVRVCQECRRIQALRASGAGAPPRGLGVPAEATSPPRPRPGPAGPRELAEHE
measurement type: Ki (µM)
# value in µM; strip the unit string

CCC(C)OC(=O)[C@@H]1C[C@H]2C[C@@H](Oc3ccccc3-c3nnn[nH]3)CC[C@H]2CN1 (stereo not given in full)    7.4
O=C(O)[C@@H]1C[C@H]2C[C@@H](CCc3nn[nH]n3)CC[C@H]2CN1    4.2

Query: Give the measured Ki for `O=C(O)c1ccc(C[C@H]2CC[C@H]3CN[C@H](C(=O)O)C[C@H]3C2)cc1`
Response: 4

Query: Give the measured Ki for O=C(O)C1CC(F)(F)CN1C[C@H]1CC[C@H]2CN[C@H](C(=O)O)C[C@H]2C1 (stereo not given in full)
Response: 0.05
